Here's what we have: IC50 numbers for N6-adenosine-methyltransferase catalytic subunit (Homo sapiens).
Entry rule: numbers only, all in µM.

Reported IC50 for `Cc1ccc(Cl)c(Nc2ccccc2C(=O)O)c1Cl` : what is it? 8

Please give the measured IC50 for this compound: `CCOC(=O)c1ccccc1Nc1c(Cl)ccc(C)c1Cl` 7

* * *

Target: METTL3/METTL14 (Homo sapiens, UniProt Q86U44)
Sequence (Q86U44 whole entry): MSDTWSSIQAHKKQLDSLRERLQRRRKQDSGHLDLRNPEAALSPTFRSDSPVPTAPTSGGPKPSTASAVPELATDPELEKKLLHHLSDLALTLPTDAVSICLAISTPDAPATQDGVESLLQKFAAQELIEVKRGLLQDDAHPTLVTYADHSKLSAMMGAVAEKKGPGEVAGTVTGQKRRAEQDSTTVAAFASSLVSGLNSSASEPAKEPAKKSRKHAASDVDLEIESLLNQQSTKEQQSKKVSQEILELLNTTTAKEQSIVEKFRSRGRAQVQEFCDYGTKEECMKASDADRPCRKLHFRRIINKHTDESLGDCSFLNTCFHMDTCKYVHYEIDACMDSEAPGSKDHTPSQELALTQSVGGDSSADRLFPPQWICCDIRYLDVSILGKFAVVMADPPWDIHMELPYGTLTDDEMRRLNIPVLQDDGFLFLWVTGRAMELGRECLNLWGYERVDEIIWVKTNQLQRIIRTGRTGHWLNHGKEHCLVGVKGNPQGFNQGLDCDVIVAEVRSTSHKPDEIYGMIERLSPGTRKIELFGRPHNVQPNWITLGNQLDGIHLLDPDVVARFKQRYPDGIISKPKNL
Sequence (Q9HCE5 whole entry, further chain): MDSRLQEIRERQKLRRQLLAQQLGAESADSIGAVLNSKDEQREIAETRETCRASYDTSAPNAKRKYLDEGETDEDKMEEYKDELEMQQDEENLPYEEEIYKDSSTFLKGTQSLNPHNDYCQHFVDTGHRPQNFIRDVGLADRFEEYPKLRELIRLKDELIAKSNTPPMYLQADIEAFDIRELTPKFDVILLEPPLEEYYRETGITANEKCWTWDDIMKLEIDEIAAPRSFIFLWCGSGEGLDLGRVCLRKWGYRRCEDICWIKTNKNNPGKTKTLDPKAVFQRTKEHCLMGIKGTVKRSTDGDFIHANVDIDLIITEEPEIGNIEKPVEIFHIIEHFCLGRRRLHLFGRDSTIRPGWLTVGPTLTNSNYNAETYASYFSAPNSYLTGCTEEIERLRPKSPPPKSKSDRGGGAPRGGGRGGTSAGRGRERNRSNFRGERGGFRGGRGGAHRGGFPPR
measured attribute: pIC50
Quick note: pIC50 values are minus log10 of concentrations in mol/L.

Give its pIC50 value. Item: `Clc1cc(-c2cn(Cc3cn4cc(CNCC5CCC5)ccc4n3)nn2)c2cn[nH]c2c1` 7.60

* * *

IC50 reference
Biological target: N6-adenosine-methyltransferase catalytic subunit (Homo sapiens, UniProt Q86U44)

Example entries begin here.
{"compound string": "O=C(O)c1ccccc1OCCc1cn(-c2ccc(-c3c(Cl)cccc3Cl)cc2)c2ccc(-c3ccc(F)cc3)cc12", "IC50": "2.81 µM"}
{"compound string": "CCc1cc(N(C)CCOC)c2ccc(CCc3cncc(-n4cc(-c5ccn(C)n5)c5c(N)ncnc54)c3)cc2n1", "IC50": "< 0.01 µM"}

Now for a further compound.
Value wanted: IC50 (N6-adenosine-methyltransferase catalytic subunit (Homo sapiens, UniProt Q86U44)) of entry `Cn1ccc(-c2cn([C@@H]3O[C@H](COc4ccc5ccc(N6CCC6)nc5c4)[C@@H](O)[C@@H]3F)c3ncnc(N)c23)n1` < 0.01 µM

* * *

Molecular target: Alpha-ketoglutarate-dependent dioxygenase FTO (Homo sapiens, UniProt Q9C0B1)
Sequence (Q9C0B1 whole entry): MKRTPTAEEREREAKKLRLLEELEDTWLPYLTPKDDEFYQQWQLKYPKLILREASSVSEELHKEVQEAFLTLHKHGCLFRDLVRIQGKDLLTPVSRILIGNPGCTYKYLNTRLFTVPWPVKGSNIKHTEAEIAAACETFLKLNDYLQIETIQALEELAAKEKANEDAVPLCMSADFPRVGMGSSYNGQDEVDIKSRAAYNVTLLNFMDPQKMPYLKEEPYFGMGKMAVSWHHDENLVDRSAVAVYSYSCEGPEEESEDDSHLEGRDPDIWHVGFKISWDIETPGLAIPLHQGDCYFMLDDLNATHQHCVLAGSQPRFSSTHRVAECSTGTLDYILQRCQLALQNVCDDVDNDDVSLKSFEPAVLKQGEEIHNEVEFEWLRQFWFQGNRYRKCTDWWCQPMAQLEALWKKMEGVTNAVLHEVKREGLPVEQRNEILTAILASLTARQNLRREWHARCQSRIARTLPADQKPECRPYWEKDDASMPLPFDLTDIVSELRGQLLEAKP
measured attribute: IC50 (nM)
Just the number in nM, nothing appended.

For the molecule `O=C(O)c1ccccc1-c1c2cc(Cl)c(=O)cc-2oc2cc(O)c(Cl)cc12` , what IC50 is on record? 640

* * *

System: Huh-7
Rule: GI50 below 0.2 µM gives met. Equal to or above 0.2 µM gives not met.

The examples below pair each entry with its known result.
{"compound string": "Nc1ncnc2c1ncn2[C@@H]1O[C@H](C[C@@H](N)CC[C@H](N)C(=O)O)[C@@H](O)[C@H]1O", "discrete label": "not met"}
{"compound string": "O=C(O)c1ccccc1OCCc1cn(-c2ccc(-c3c(Cl)cccc3Cl)cc2)c2ccc(-c3ccc(F)cc3)cc12", "discrete label": "not met"}
{"compound string": "O=C(NCc1cn2cc(CNCC3CCCCC3)ccc2n1)c1cc(=O)n2ccccc2n1", "discrete label": "not met"}
{"compound string": "COc1cc(-c2cn(Cc3cn4cc(CNCC5CCC5)ccc4n3)nn2)c2cn[nH]c2c1", "discrete label": "met"}

For this compound, is GI50 lower than 0.2 µM? `Clc1cc(-c2cn(Cc3cn4cc(CNCC5CCC5)ccc4n3)nn2)c2cn[nH]c2c1` not met

* * *

Target: YTH domain-containing protein 1 (Homo sapiens)
measured attribute: IC50 (nM)
Quick reminder: number only, in nM, skip the unit.

Look up IC50 with YTH domain-containing protein 1 (Homo sapiens) for this compound: O=c1c2ccccc2[se]n1-c1ccccc1 [EBSELEN] 1600

* * *

Molecular target: N6-adenosine-methyltransferase catalytic subunit (Homo sapiens, UniProt Q86U44)
pIC50: −log10 of the molar value.
Listed below: pIC50 values for each entry.

Some compounds with known pIC50 results, for comparison:
{"compound string": "CCc1cc(N(C)CCOC)c2ccc(CCc3cncc(-n4cc(-c5ccn(C)n5)c5c(N)ncnc54)c3)cc2n1", "measured attribute": "pIC50", "measured result": "> 6.00"}
{"compound string": "O=C(O)c1ccccc1OCCc1cn(-c2ccc(-c3c(Cl)cccc3Cl)cc2)c2ccc(-c3ccc(F)cc3)cc12", "measured attribute": "pIC50", "measured result": 5.40}

Please examine the following record next.
Returns the measured pIC50 for the input compound. Input: `Cn1ccc(-c2cn([C@@H]3O[C@H](COc4ccc5ccc(N6CCC6)nc5c4)[C@@H](O)[C@@H]3F)c3ncnc(N)c23)n1` > 6.00
